# tested-on: UniProt:P20272
# Sequence (P20272 whole entry): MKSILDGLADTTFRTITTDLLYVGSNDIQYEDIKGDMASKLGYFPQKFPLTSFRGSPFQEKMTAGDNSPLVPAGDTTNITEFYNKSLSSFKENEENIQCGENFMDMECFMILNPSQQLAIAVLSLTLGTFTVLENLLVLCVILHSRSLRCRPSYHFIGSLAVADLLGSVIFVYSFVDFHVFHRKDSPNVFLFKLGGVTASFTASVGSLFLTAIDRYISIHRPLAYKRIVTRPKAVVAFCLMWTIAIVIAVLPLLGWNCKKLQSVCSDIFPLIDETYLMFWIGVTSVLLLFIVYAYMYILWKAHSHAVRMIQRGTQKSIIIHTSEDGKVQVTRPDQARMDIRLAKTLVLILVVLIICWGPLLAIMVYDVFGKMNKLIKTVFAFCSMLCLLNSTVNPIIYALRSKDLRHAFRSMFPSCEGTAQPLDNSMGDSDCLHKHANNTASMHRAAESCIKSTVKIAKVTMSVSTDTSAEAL
# protocol: CB1 receptor rat binding assay ([3H]SR141716A, rat brain membranes)
# experimental-context: rat brain membranes, [3H]SR141716A
Overview of recorded Binding rat Inh % for various compounds
property-measured: Binding rat Inh % (%)

1) CCCNC(=O)c1ccc2c(c1)N=C(c1cccc(F)c1)c1ccccc1S2 [drawing 1286] ... 84
2) O=C(NN1CCCCC1)c1ccc2c(c1)N=C(c1ccc(F)c(Cl)c1)c1ccccc1S2 [drawing 1321] ... 100
3) CC(C)CNC(=O)c1ccc2c(c1)N=C(c1ccc(Cl)s1)c1ccc(F)cc1S2 [drawing 1359] ... 95
4) O=C(NCc1ccco1)c1ccc2c(c1)N=C(c1cccc(Cl)c1)c1ccccc1S2 [drawing 1448] ... 85
5) O=C(NCCc1ccncc1)c1ccc2c(c1)N=C(c1ccc(Cl)cc1)c1ccccc1S2 [drawing 1339] ... 96
6) O=C(NCc1ccccn1)c1ccc2c(c1)N=C(c1cccc(Br)c1)c1ccccc1S2 [drawing 1419] ... 79
7) CCCCNC(=O)c1cc2c(cc1C)Sc1ccccc1C(c1ccc(Cl)cc1)=N2 [drawing 1243] ... 119
8) O=C(NCCCC(F)(F)F)c1ccc2c(c1)N=C(c1ccsc1)c1ccccc1S2 [drawing 1233] ... 97
9) O=C(NC1CCCCC1)c1ccc2c(c1)N=C(c1cccc(F)c1)c1ccccc1S2 [drawing 1306] ... 84
10) C[C@@H]1CCC[C@H](C)N1NC(=O)c1ccc2c(c1)N=C(c1cccc(Cl)c1)c1ccccc1S2 [drawing 1526] ... 73
11) CCCCNC(=O)c1ccc2c(c1)N=C(c1cccc(F)c1)c1ccccc1S2 [drawing 1498] ... 82
12) C[C@@H]1CCC[C@H](C)N1NC(=O)c1ccc2c(c1)N=C(c1ccc(Cl)cc1)c1ccccc1S2 [drawing 1396] ... 94
13) O=C(NCCCC(F)(F)F)c1ccc2c(c1)N=C(c1ccc(Cl)cc1)c1ccccc1S2 [drawing 1226] ... 89
14) CC(C)CNC(=O)c1ccc2c(c1)N=C(c1ccccc1F)c1ccccc1S2 [drawing 1307] ... 90
15) O=C(NC1CCCCC1)c1ccc2c(c1)N=C(c1ccccc1F)c1ccccc1S2 [drawing 1539] ... 83
16) O=C(NN1CCCCC1)c1ccc2c(c1)N=C(c1ccc(Cl)s1)c1ccccc1S2 [drawing 1385] ... 88
17) O=C(NCc1cccs1)c1ccc2c(c1)N=C(c1ccc(Cl)cc1)c1ccccc1S2 [drawing 1279] ... 94

###

# tested-on: CB1 (mutant) (Homo sapiens)
# Sequence (P21554 1-417, change not shown): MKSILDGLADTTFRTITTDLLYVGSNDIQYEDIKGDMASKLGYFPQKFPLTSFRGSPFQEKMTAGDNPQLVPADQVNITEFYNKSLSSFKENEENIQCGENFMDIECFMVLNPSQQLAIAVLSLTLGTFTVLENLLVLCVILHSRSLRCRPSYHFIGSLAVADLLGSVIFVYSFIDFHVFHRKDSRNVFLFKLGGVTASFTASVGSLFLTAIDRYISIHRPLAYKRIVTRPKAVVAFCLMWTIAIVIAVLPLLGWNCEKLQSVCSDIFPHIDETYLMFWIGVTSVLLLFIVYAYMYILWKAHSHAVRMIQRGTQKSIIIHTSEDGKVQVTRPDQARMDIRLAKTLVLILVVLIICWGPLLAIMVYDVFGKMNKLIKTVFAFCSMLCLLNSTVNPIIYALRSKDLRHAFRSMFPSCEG
# protocol: R-SAT functional receptor assay, CB1 (mutant, truncated after amino acid 417)
# Assay type: cell-based
# experimental-context: Appendix A; R-SAT CB1; receptor form (mutant or wild-type) not stated; read-out: pIC50 (converted)
property-measured: IC50 (nM)

1. O=C(NNC(=O)c1ccc2c(c1)N=C(c1ccc(F)cc1)c1ccccc1S2)c1ccccc1 [drawing 764] ... 100
2. O=C(NCCc1cccnc1)c1ccc2c(c1)N=C(c1ccc(Cl)cc1)c1ccccc1S2 [drawing 638] ... 63.1
3. O=C(NCCc1ccccn1)c1ccc2c(c1)N=C(c1ccc(Cl)cc1F)c1ccccc1S2 [drawing 562] ... 50.1
4. O=C(NN1CCCCC1)c1ccc2c(c1)N=C(c1ccc(F)c(Cl)c1)c1ccccc1S2 [drawing 817] ... 12.6
5. Cc1ccc(CNC(=O)c2ccc3c(c2)N=C(c2ccsc2)c2ccccc2S3)o1 [drawing 803] ... 10
6. CC(CNC(=O)c1ccc2c(c1)N=C(c1cccc(Cl)c1)c1ccccc1S2)c1ccccc1 (stereo not drawn) [drawing 587] ... 3.16
7. O=C(NCc1cccs1)c1ccc2c(c1)N=C(c1ccccc1Cl)c1ccccc1S2 ... 200
8. CCCC1=Nc2cc(C(=O)NCCCOCC)ccc2Sc2ccccc21 ... 50.1
9. CCCC1=Nc2cc(C(=O)NCC(OCC)OCC)ccc2Sc2ccccc21 ... 39.8
